STUDY SYSTEM: human thrombopoietin receptor (c-mpl) (Homo sapiens, UniProt P40238)
Sequence (P40238 26-635): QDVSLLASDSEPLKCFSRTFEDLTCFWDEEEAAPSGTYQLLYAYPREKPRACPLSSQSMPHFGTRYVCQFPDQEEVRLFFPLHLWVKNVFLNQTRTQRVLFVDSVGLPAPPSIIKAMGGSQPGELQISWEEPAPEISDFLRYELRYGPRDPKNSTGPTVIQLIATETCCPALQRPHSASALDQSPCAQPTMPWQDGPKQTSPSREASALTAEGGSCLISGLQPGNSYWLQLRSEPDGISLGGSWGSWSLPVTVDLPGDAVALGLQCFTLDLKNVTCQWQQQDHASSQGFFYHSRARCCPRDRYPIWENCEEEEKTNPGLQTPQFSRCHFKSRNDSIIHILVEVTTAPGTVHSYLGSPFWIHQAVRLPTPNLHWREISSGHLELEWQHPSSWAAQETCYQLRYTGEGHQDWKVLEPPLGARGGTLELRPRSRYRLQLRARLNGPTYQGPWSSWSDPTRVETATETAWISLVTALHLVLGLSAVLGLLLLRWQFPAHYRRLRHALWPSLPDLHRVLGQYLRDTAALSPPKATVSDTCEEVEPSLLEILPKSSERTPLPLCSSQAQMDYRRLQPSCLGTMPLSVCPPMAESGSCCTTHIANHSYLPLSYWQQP
ASSAY PROCEDURE: Stimulation of proliferation of thrombopoietin-dependent cell line UT7/EPO-mpl (WST-8)
TEST PARAMETERS: concentration yielding growth rate corresponding to 50% of growth of UT-7/EPO-mpl in the presence of 10 ng/mL TPO; 4 days incubation, WST-8
ASSAY ENDPOINT: pEC50
The value called pEC50 is obtained by taking minus log10 of the concentration in mol/L.

Use the examples below as a reference point.
1) C/C(=N\NC(=O)c1ccc(C(=O)N2CCCC2)s1)c1csc(-c2ccc3c(c2)CCCC3)c1O : 8.61
2) C/C(=N\NC(=S)Nc1cccc(-c2nnn[nH]2)c1)c1csc(-c2ccc3c(c2)CCC3)c1O : 8.40
3) CCN(CC)C(=O)c1ccc(C(=O)N/N=C(\C)c2csc(-c3ccc4c(c3)CCCC4)c2O)s1 : 8.31
4) C/C(=N\NC(=O)c1ccc(C(=O)NCc2ccc(C(=O)NCCO)cc2)s1)c1csc(-c2ccc3c(c2)CCCC3)c1O : 9.45
5) C/C(=N\NC(=O)c1ccc(C(=O)N2CCCC2)s1)c1csc(-c2ccc3c(c2)CCO3)c1O : 7.00
6) COC(=O)C1CCN(C(=S)N/N=C(\C)c2csc(-c3ccc4c(c3)CCC4)c2O)CC1 : 7.28

// pEC50 lookup, key: C/C(=N\NC(=O)c1ccc(C(=O)O)c([N+](=O)[O-])c1)c1csc(-c2ccc3c(c2)CCO3)c1O
7.25

// pEC50 lookup, key: CCN(CC)C(=O)c1ccc(C(=O)N/N=C(\C)c2nn(C)c(-c3ccc4c(c3)CCC4)c2O)s1
7.15

// pEC50 lookup, key: C/C(=N\NC(=S)N1CCC(C(=O)O)CC1)c1nn(C)c(-c2ccc3c(c2)CCC3)c1O
7.12

// pEC50 lookup, key: C/C(=N\NC(=S)Nc1ccc(C(=O)O)cc1)c1csc(-c2ccc3c(c2)CCC3)c1O
8.24

// pEC50 lookup, key: C/C(=N\NC(=O)c1ccc(C(=O)NCc2ccncc2)s1)c1csc(-c2ccc3c(c2)CCC3)c1O
9.28

// pEC50 lookup, key: C/C(=N\NC(=O)c1ccc(C(=O)NCc2ccncc2)s1)c1csc(-c2ccc3c(c2)CCCC3)c1O
9.34

// pEC50 lookup, key: C/C(=N\NC(=S)Nc1ccc(C(=O)O)cc1)c1csc(-c2ccc3c(c2)CCCC3)c1O
8.24

// pEC50 lookup, key: COC(=O)C1CCN(C(=S)N/N=C(\C)c2csc(-c3ccc4c(c3)CCCC4)c2O)CC1
7.31

// pEC50 lookup, key: C/C(=N\NC(=O)c1ccc(C(=O)O)cc1)c1csc(-c2ccc3c(c2)CCCC3)c1O
8.52

// pEC50 lookup, key: COC(=O)C1CCN(C(=S)N/N=C(\C)c2nn(C)c(-c3ccc4c(c3)CCC4)c2O)CC1
7.00
